# assay_target: human recombinant adrenergic α2A receptor (Homo sapiens, UniProt P08913)
# Construct: expressed in transfected cells; host or cells: insect Sf9 cells
# Sequence (P08913 whole entry): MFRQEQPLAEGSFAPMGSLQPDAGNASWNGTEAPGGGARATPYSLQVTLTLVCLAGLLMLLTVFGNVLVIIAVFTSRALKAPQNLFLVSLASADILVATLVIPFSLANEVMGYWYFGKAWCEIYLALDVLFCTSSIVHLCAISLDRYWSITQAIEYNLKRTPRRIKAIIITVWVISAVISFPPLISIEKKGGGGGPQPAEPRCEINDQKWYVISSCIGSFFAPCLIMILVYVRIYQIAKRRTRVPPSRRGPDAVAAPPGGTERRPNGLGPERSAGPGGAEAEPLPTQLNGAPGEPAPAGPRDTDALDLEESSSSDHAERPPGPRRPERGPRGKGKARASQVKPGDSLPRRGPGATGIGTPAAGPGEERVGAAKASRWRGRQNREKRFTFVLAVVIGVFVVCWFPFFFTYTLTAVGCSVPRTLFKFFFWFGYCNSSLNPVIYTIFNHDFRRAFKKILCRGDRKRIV
# protocol: Adrenergic alpha2A radioligand binding ([3H]MK-912)
# recorded_conditions: compound at 1 μM; read-out: Adrenergic (1 μM) α2A, percent inhibition of specific binding
assay_metric: inhibition at 1 µM (%)
Unit % implied. Number only.

Form field: reported inhibition at 1 µM of CN1CCc2c(n(CCc3ccccn3)c3ccc(Cl)cc23)CC1 [Compound No. 8]
95

Repeat for the following compound: CN1CCc2c(n(/C=C/c3ccccc3F)c3ccc(Cl)cc23)CC1 [Compound No. 83]
99

Now try Cc1ccc2c(c1)c1c(n2/C=C/c2ccc(F)cc2)CCN(C)CC1 [Compound No. 39] .
98

Another compound to look at: C=C(Cn1c2c(c3cc(Cl)ccc31)CCN(C)CC2)c1ccc(Cl)cc1 [Compound No. 35]
93

And C/C(=C/n1c2c(c3cc(C)ccc31)CCN(C)CC2)c1ccc(Cl)cc1Cl [Compound No. 174] ?
101

Would you mind doing COc1ccc(/C=C/n2c3c(c4cc(Cl)ccc42)CCN(C)CC3)cc1F [Compound No. 158] as well?
99

Please do the same for CC1CCN(C(=O)Cn2c3c(c4cc(Cl)ccc42)CCN(C)CC3)CC1 [Compound No. 76] as well.
7

Follow-up entry: CN1CCc2c(n(CC(O)c3ccc(Cl)cc3)c3ccc(Cl)cc23)CC1 (stereo not drawn) [Compound No. 16]
105

Now try Cc1ccc2c(c1)c1c(n2CC(=O)N2CCNCC2)CCN(C)CC1 [Compound No. 224] .
8

====

# assay_target: human recombinant adrenergic α1D receptor (Homo sapiens)
# Construct: expressed in transfected cells; host or cells: HEK-293 cells
# Sequence (P25100 whole entry): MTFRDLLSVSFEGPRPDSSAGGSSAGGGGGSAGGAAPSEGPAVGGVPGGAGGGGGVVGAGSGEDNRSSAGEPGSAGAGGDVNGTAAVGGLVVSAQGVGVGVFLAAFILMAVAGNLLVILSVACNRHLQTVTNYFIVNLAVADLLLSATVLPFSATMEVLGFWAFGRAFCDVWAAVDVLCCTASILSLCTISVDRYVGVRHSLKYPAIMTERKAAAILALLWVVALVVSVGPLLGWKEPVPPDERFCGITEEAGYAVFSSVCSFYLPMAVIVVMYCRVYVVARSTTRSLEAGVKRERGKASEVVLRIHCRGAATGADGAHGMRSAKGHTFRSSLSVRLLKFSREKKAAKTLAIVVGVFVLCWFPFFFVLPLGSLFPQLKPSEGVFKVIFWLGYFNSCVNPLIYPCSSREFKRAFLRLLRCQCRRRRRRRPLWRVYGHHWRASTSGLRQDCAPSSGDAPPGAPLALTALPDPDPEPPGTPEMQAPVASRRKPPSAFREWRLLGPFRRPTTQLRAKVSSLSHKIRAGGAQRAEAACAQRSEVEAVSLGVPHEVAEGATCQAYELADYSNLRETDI
# protocol: Adrenergic alpha1D radioligand binding ([3H]Prozosin)
# recorded_conditions: compound at 1 μM; read-out: Adrenergic (1 μM) α1D, percent inhibition of specific binding
Provide the recorded inhibition at 1 µM for the entries that follow.
Note: unit % is implicit; provide only the numeric part.

What inhibition at 1 µM value was documented for this compound, Cc1ccc2c(c1)c1c(n2CC(=O)N2CCCCC2)CCN(C)CC1 ?
4

Field entry: COc1ccc(/C=C/n2c3c(c4cc(C)ccc42)CCN(C)CC3)c(F)c1
97

Further, for CN1CCc2c(n(CCc3ccccc3F)c3ccccc23)CC1 ?
70

Also, CN1CCc2c(n(CC(=O)N3CCOCC3)c3ccc(Cl)cc23)CC1 please.
-1

Also Cc1ccc2c(c1)c1c(n2CC(=O)N2CCCC2)CCN(C)CC1 , if possible.
1

====

# assay_target: human recombinant dopamine D2L receptor (Homo sapiens)
# Construct: expressed in transfected cells; host or cells: CHO cells
# Sequence (P14416 whole entry): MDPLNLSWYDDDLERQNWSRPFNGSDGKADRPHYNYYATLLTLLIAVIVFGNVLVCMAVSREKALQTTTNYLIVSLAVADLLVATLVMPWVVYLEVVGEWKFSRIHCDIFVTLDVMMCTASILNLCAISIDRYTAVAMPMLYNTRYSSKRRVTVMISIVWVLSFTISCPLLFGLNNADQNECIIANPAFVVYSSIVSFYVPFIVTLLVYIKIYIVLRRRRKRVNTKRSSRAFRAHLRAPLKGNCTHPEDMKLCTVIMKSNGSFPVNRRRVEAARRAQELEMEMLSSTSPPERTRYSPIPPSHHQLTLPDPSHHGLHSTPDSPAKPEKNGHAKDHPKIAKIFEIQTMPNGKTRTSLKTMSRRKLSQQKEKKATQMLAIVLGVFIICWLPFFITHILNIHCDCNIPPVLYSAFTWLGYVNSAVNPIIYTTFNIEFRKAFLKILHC
# protocol: Dopamine D2L radioligand binding ([3H]Spiperone)
# recorded_conditions: compound at 1 μM; read-out: Dopamine (1 μM) D2L, percent inhibition of specific binding
Quick rule for you: inhibition at 1 µM at 10% or higher means 1.0, lower means 0.0.

Entry Cc1ccc2c(c1)c1c(n2CC(=O)N2CCC(C)CC2)CCN(C)CC1 : is its inhibition at 1 µM no less than 10%?
0.0

Record: Cc1cncc(CCn2c3c(c4cc(Cl)ccc42)CCN(C)CC3)c1
1.0

Next: Cc1ccc2c(c1)c1c(n2CCc2ccccc2F)CCN(C)CC1
1.0

CC1CCN(C(=O)Cn2c3c(c4cc(Cl)ccc42)CCN(C)CC3)CC1 ?
0.0

And the next one, CN1CCc2c(n(CC(C)(O)c3ccc(Cl)cc3)c3ccc(Cl)cc23)CC1 (stereo not drawn) ?
1.0

What do you get for C/C(=C\n1c2c(c3cc(C)ccc31)CCN(C)CC2)c1ccccc1F ?
1.0

Okay, and C/C(=C/n1c2c(c3cc(C)ccc31)CCN(C)CC2)c1ccccc1F ?
1.0

Entry to check: Cc1ccc2c(c1)c1c(n2CC(=O)Nc2ccccc2)CCN(C)CC1
0.0
